tested-target: CDK13 (Homo sapiens, UniProt Q14004)
Sequence (Q14004 whole entry): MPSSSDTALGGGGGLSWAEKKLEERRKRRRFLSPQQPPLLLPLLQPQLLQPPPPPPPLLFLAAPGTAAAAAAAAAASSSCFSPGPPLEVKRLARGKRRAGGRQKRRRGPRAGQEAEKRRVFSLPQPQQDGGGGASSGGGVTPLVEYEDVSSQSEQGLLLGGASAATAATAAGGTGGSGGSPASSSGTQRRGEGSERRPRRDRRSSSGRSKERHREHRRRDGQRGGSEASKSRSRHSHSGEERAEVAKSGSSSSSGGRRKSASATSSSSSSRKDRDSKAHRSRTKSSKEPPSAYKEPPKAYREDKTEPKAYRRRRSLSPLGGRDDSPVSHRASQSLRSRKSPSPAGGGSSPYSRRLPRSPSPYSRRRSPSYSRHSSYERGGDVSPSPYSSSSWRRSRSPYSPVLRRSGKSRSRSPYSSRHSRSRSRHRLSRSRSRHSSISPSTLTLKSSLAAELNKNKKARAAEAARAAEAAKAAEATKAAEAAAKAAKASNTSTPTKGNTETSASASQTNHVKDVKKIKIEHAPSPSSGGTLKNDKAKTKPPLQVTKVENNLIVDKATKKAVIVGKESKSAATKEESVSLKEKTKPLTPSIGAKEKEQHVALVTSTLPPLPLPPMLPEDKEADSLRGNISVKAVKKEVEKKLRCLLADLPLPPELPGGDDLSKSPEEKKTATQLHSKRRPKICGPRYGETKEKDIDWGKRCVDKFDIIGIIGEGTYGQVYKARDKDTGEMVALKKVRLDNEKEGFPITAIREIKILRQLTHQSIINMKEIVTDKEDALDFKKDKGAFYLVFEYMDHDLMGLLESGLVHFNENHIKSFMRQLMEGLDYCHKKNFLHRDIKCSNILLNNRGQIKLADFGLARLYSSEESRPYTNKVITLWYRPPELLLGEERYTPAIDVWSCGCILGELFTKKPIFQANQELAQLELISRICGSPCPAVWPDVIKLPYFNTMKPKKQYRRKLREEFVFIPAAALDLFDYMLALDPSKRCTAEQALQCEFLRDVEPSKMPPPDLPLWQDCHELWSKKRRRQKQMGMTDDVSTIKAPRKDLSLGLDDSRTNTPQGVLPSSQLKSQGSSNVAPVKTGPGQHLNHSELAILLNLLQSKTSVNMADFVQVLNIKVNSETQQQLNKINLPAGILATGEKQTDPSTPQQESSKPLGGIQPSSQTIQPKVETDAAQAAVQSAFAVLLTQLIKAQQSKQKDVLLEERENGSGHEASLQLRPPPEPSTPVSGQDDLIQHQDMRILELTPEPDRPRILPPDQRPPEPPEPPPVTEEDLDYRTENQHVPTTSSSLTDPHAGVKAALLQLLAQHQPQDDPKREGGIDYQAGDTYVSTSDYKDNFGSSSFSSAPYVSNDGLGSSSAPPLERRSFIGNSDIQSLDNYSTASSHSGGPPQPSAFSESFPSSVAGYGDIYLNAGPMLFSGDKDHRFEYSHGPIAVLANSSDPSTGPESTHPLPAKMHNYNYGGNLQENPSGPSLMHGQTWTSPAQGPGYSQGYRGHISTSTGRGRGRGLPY
Sequence (O75909 whole entry partner): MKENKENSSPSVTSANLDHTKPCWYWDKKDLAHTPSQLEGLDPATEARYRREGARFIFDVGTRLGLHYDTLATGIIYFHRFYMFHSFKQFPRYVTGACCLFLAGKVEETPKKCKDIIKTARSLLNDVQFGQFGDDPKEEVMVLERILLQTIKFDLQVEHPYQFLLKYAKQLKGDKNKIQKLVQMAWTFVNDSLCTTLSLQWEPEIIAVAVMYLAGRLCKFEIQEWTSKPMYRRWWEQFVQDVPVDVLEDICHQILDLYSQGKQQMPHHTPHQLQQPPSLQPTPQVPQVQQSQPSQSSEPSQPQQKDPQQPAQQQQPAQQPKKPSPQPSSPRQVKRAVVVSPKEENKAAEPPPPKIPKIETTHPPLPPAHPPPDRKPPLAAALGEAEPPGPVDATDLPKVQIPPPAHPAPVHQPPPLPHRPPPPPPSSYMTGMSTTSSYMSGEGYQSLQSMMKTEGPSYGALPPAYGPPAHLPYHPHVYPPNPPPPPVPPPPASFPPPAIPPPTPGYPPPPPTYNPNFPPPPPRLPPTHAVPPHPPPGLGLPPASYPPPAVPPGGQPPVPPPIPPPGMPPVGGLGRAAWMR
protocol-details: Western blot degradation of CDK13 (Example 2)
Format: cell-based
Set-up: degradation of CDK12/13 protein in leukemia cells KASUMI-1, MV4-11, and Jurkat; endogenous in cells
measurement-parameters: DC50 classes; cell line not given; read-out: CDK13 degradation Activity
measured-metric: DC50

Cc1ncsc1-c1ccc([C@H](C)NC(=O)[C@@H]2C[C@@H](O)CN2C(=O)[C@@H](NC(=O)CN2CCN(c3ncc(-c4ccc(N(C(=O)NCc5ccccc5)[C@H]5CC[C@H](Nc6ccc(C#N)cn6)CC5)cc4)cn3)CC2)C(C)(C)C)cc1 [Formula 45]	< 100 nM
N#Cc1ccc(N[C@H]2CC[C@H](N(C(=O)NCc3ccccc3)c3ccc(-c4ccc(OCCOCCNc5cccc6c5C(=O)N(C5CCC(=O)NC5=O)C6=O)nc4)cc3)CC2)nc1 (some centres unmarked) [Formula 32]	500 to 1000 nM
Cc1ncsc1-c1ccc([C@H](C)NC(=O)[C@@H]2C[C@@H](O)CN2C(=O)[C@@H](NC(=O)CN2CCN(c3ncc(-c4ccc(N(C(=O)NCc5ccccc5)[C@H]5CC[C@H](Nc6ccc(C#N)cn6)CC5)cc4)cn3)CC2)C(C)(C)C)cc1 (racemic) [Formula 81]	< 100 nM

// switching to the query compound
QUERY: For the compound shown here, Cc1ncsc1-c1ccc([C@H](C)NC(=O)[C@@H]2C[C@@H](O)CN2C(=O)[C@@H](NC(=O)COCCOCCN2CCN(c3ccc(N(C(=O)NCc4ccccc4)[C@H]4CC[C@H](Nc5ccc(C#N)cn5)CC4)cc3)CC2)C(C)(C)C)cc1 [Formula 8] , give the reported DC50.
RESULT: 500 to 1000 nM

* * *

tested-target: CDK13 (Homo sapiens)
protocol-details: Western blot degradation of CDK13 (Example 3)
Type: cell-based
Set-up: degradation of CDK12/13 protein in leukemia cells KASUMI-1, MV4-11, and Jurkat; endogenous in cells
measurement-parameters: DC50 classes; cell line not given; read-out: CDK13 degradation Activity
measured-metric: DC50

// solved cases for DC50 follow
CC(=O)N(c1ccc(N2CCN(C(=O)CNc3ccc4c(c3)C(=O)N(C3CCC(=O)NC3=O)C4=O)CC2)cc1)[C@H]1CC[C@H](Nc2ncc3ccccc3n2)CC1 (stereo partly shown)	1 to 3 µM
CC(=O)N(c1ccc(-c2cnc(N3CCN(CC(=O)N[C@H](C(=O)N4C[C@H](O)C[C@H]4C(=O)N[C@@H](C)c4ccc(-c5scnc5C)cc4)C(C)(C)C)CC3)nc2)cc1)[C@H]1CC[C@H](Nc2ncc3ccccc3n2)CC1	< 0.1 µM
CC(=O)N(c1ccc(-c2cnc(N3CCN(C(=O)N[C@H](C(=O)N4C[C@H](O)C[C@H]4C(=O)N[C@@H](C)c4ccc(-c5scnc5C)cc4)C(C)(C)C)CC3)nc2)cc1)[C@H]1CC[C@H](Nc2ncc3ccccc3n2)CC1	3 to 10 µM
CC(=O)N(c1ccc(-c2cnc(N3CCN(c4ccc5c(c4)C(=O)N(C4CCC(=O)NC4=O)C5=O)CC3)nc2)cc1)[C@H]1CC[C@H](Nc2ncc3ccccc3n2)CC1 (stereo partly shown) [Formula 158]	< 0.1 µM
CC(=O)N(c1ccc(-c2cnn(C3CN(c4ccc5c(c4)C(=O)N(C4CCC(=O)NC4=O)C5=O)C3)c2)cc1)[C@H]1CC[C@H](Nc2ncc3ccccc3n2)CC1 (stereo partly shown)	3 to 10 µM

QUERY: Would you mind telling me what DC50 value was observed for `CC(=O)N(c1ccc(-c2ccc(N3C[C@H]4C[C@@H]3CN4CC(=O)N[C@H](C(=O)N3C[C@H](O)C[C@H]3C(=O)N[C@@H](C)c3ccc(-c4scnc4C)cc3)C(C)(C)C)nc2)cc1)[C@H]1CC[C@H](Nc2ncc3ccccc3n2)CC1` ?
RESULT: 0.1 to 0.5 µM

QUERY: And the next one, CC(=O)N(c1ccc(-c2cnn(CC3CN(CC(=O)N[C@H](C(=O)N4C[C@H](O)C[C@H]4C(=O)N[C@@H](C)c4ccc(-c5scnc5C)cc4)C(C)(C)C)C3)c2)cc1)[C@H]1CC[C@H](Nc2ncc3ccccc3n2)CC1 (stereo in doubt) ?
RESULT: 0.5 to 1 µM

QUERY: Now consider CC(=O)N(c1ccc(-c2ccn(CC3CN(c4ccc5c(c4)C(=O)N(C4CCC(=O)NC4=O)C5=O)C3)c(=O)c2)cc1)[C@H]1CC[C@H](Nc2ncc3ccccc3n2)CC1 (stereo partly shown) and answer again.
RESULT: 0.1 to 0.5 µM

QUERY: Here is the next compound: CC(=O)N(c1ccc(N2CCN(C(=O)/C=C/c3ccc4c(c3)C(=O)N(C3CCC(=O)NC3=O)C4=O)CC2)cc1)[C@H]1CC[C@H](Nc2ncc3ccccc3n2)CC1 (stereo partly shown)
RESULT: 0.5 to 1 µM

QUERY: Would you kindly repeat that for `CC(=O)N(c1ccc(-c2ccc(N3C[C@@H]4C[C@H]3CN4CC(=O)N[C@H](C(=O)N3C[C@H](O)C[C@H]3C(=O)N[C@@H](C)c3ccc(-c4scnc4C)cc3)C(C)(C)C)nc2)cc1)[C@H]1CC[C@H](Nc2ncc3ccccc3n2)CC1` ?
RESULT: 0.1 to 0.5 µM

QUERY: Param item: `CC(=O)N(c1ccc(-c2cnc(OC3CCN(CC(=O)N[C@H](C(=O)N4C[C@H](O)C[C@H]4C(=O)N[C@@H](C)c4ccc(-c5scnc5C)cc4)C(C)(C)C)CC3)nc2)cc1)[C@H]1CC[C@H](Nc2ncc3ccccc3n2)CC1`
RESULT: 0.5 to 1 µM

QUERY: What would you report for `CC(=O)N(c1ccc(-c2ccc(N3CCN(CC(=O)N[C@H](C(=O)N4C[C@H](O)C[C@H]4C(=O)N[C@@H](C)c4ccc(-c5scnc5C)cc4)C(C)(C)C)CC3)nc2)cc1)[C@H]1CC[C@H](Nc2ncc3ccccc3n2)CC1` ?
RESULT: < 0.1 µM

QUERY: Then CC(=O)N(c1ccc(N2CCC3(CC2)CCN(c2ccc4c(c2)C(=O)N(C2CCC(=O)NC2=O)C4=O)CC3)cc1)[C@H]1CC[C@H](Nc2ncc3ccccc3n2)CC1 (stereo partly shown) ?
RESULT: 3 to 10 µM
